Cited source: ChEMBL document CHEMBL1125656

Molecular target: Glutamate NMDA receptor
Assay: Inhibition of strychnine-insensitive [3H]glycine binding to the N-methyl-D-aspartate glutamate receptor of synaptic plasma membranes(SPM) prepared from rat forebrain
PROPERTY_MEASURED: Ki

Some entries whose results are on file:
O=C(O)c1cc2c(OCc3ccccc3)cccc2[nH]1 : > 30 µM
O=C(O)Cc1c(C(=O)O)[nH]c2c(Cl)cccc12 : > 30 µM
CCOC(=O)Cc1c(CO)[nH]c2cc(Cl)ccc12 : > 30 µM
Cc1cc2c(CC(=O)O)c(C(=O)O)[nH]c2cc1Cl : > 30 µM
O=C(O)c1cc2c(O)cccc2[nH]1 : > 30 µM

Hi team, please reply with Ki for each item in this list.
1. O=C(O)CCc1c(C(=O)O)[nH]c2ccccc12
2. CCOC(=O)Cc1c(C=O)[nH]c2cc(Cl)ccc12
3. CCC(C(=O)O)c1c(C(=O)O)[nH]c2ccccc12 (stereo not given)
4. O=C(O)c1[nH]c2ccccc2c1CO
5. Cn1c(C(=O)O)c(CC(=O)O)c2ccccc21

1: > 100 µM; 2: > 30 µM; 3: > 100 µM; 4: > 100 µM; 5: > 100 µM
